# Protocol summary: Ratio in brain to that of rat plasma for 2 hr after […]
# Assay type: ADME, organism-based
# Set-up: route oral
# Stated conditions: po, read-out: B/P
Readout: Kp at 2 h
Answer using only a numeral; do not append any unit.

Exam item: What does the record list as Kp at 2 h for CCCN(Cc1sc(Nc2c(Cl)cc(Cl)cc2Cl)nc1C(F)(F)F)CC1CC1 ?
Marked response: 2

###

# Test system: Rattus norvegicus
# Protocol summary: Area under curve in rat plasma for 0-4 hr after peroral administration at 10 mg/kg
# Stated conditions: in vivo, po
Readout: AUC (ng·h/mL)
Entry rule: numbers only, all in ng·h/mL.

Exam item: For the molecule shown here, CCCN(Cc1sc(Nc2c(Cl)cc(Cl)cc2Cl)nc1C(F)(F)F)CC1CC1 , give the reported AUC.
Marked response: 1730

###

# System: Rattus norvegicus
# Protocol summary: Area under curve in rat plasma for 0-4 hr after peroral administration at 10 mg/kg
# Assay type: ADME, organism-based
# Parameters: time < 4 hr, dose 10 mg/kg, route oral
# Stated conditions: in vivo, po
Readout: AUC (ng·h/mL)
Your answer is read as ng·h/mL, so omit the unit and give the number.

Exam item: Any idea what AUC was measured for CCCN(Cc1sc(Nc2c(Cl)cc(Cl)cc2Cl)nc1C(F)(F)F)CC1CC1 ?
Marked response: 1730

###

# Protocol summary: Oral bioavailability in rat after peroral administration at 10 mg/kg
# Assay type: ADME, organism-based
# Stated conditions: in vivo
Readout: bioavailability (%)
Respond numerically; units are % and should not be typed.

Exam item: Query (molecule): CCCN(Cc1sc(Nc2c(Cl)cc(Cl)cc2Cl)nc1C(F)(F)F)CC1CC1 ; field requested: bioavailability
Marked response: 9

###

# Protocol summary: Oral bioavailability in rat after […]
# Type: ADME, organism-based
# Stated conditions: in vivo
Readout: bioavailability (%)
State the answer as a number, implicitly in %.

Exam item: Item under review: CCCN(Cc1sc(Nc2c(Cl)cc(Cl)cc2Cl)nc1C(F)(F)F)CC1CC1 . Reported bioavailability?
Marked response: 9

###

# Protocol summary: Plasma clearance in rat after intravenous administration at 5 mg/kg concentration
Readout: clearance (mL/min/kg)
Please reply with the bare figure in mL/min/kg and do not write the unit itself.

Exam item: GET /values?readout=clearance&item= CCCN(Cc1sc(Nc2c(Cl)cc(Cl)cc2Cl)nc1C(F)(F)F)CC1CC1
Marked response: 16

###

# Protocol summary: Plasma clearance in rat after peroral administration at 10 mg/kg concentration
# Format: ADME, organism-based
Readout: CL/F (mL/min/kg)
Answer with a number only, understood to be in mL/min/kg.

Exam item: # get_value(readout='CL/F', item= CCCN(Cc1sc(Nc2c(Cl)cc(Cl)cc2Cl)nc1C(F)(F)F)CC1CC1 )
Marked response: 16

###

# Protocol summary: Ratio in brain to that of rat plasma for 2 hr after peroral administration at 10 mg/kg
# Format: ADME, organism-based
# Design: dose 10 mg/kg, route oral
# Stated conditions: po, read-out: B/P
Readout: Kp at 2 h
Please reply with the number alone, leaving off any unit.

Exam item: Field request: Kp at 2 h | item: CCCN(Cc1sc(Nc2c(Cl)cc(Cl)cc2Cl)nc1C(F)(F)F)CC1CC1
Marked response: 2
